Test system: tumor necrosis factor (α)
experiment_description: Cytokine induction in human cells: tumor necrosis factor (α) secreted by PBMCs (ELISA)
Format: cell-based
condition_set: Dose Concentration 3.33 μM, 18 to 24 hours
Counter-ions that a name gives are not always drawn.
recorded_endpoint: Tumor Necrosis Factor Induction

* CCCc1nc2c(N)nc3cccnc3c2s1 | +
* CCCCc1nc2c(N)nc3cccnc3c2s1 | +
* CCCc1nc2c(N)nc3cc(OC)ccc3c2s1 | +
* CC(C)c1nc2c(N)nc3ccccc3c2s1 | +
* CCCc1nc2c(N)nc3cc(Cl)ccc3c2s1 | +
* CCCc1nc2c(N)nccc2s1 [Example 62, Trifluoroacetate] | −
* CCCCc1nc2c(N)nc3ccccc3c2s1 [Example 18, 2-Butylthiazolo[4,5-c]quinolin-4-amine] | +
* Nc1nc2ccccc2c2sc(CCc3ccccc3)nc12 | −
* CCCc1nc2c(N)nc3ccc(N)cc3c2s1 | +
* Nc1nc2ccccc2c2sc(N3CCOCC3)nc12 | −

----------
Counter-ions that a name gives are not always drawn.
recorded_endpoint: melting point

* Nc1nc2ccccc2c2sc(Cc3ccccc3)nc12 (as salt: hydrochloride) [Example 34] | 152 to 155 °C
* CCCc1nc2c(N)nc3ccc(C)cc3c2s1 [Example 36] | 147 to 149 °C
* CC(C)(O)Cc1nc2c[n+]([O-])c3ccccc3c2s1 [Example 25] | 187 to 189 °C
* Cc1nc2c(N)nc3ccccc3c2s1.Cl [Example 4] | 323 to 325 °C
* CCOCc1nc2c[n+]([O-])c3ccccc3c2s1 [Example 27] | 138 to 140 °C
* CCCc1nc2c(N)nc3ccc(N)cc3c2s1 [Example 42] | 190 to 192 °C
* CCc1nc2c(N)nc3ccccc3c2o1 [Example 39, 2-Ethyloxazolo [4,5-c]quinolin-4-amine] | 175 to 178 °C
* CCCc1nc2c(N)nc3cc(Cl)ccc3c2s1 [Example 63] | 159 to 160 °C
* CCCc1nc2c(N)nc3cc(C(F)(F)F)ccc3c2s1 [Example 50] | 215 to 216 °C
* CC(C)Cc1nc2c(N)nc3ccccc3c2s1 [Example 32] | 123 to 125 °C

----------
Structures can show the parent of a compound that is named as a salt.
recorded_endpoint: melting point

- CCCCCc1nc2c[n+]([O-])c3ccccc3c2s1: 142 to 144 °C
- Nc1nc2ccccc2c2scnc12 [Example 6, Thiazolo[4,5-c]quinolin-4-amine]: 172.4 °C (dec.)
- CC(C)c1nc2c(N)nc3ccccc3c2s1: 163 to 165 °C
- CCCc1nc2c(N)nc3ccccc3c2o1 [Example 43, 2-Propyloxazolo[4,5-c]quinolin-4-amine]: 159 to 160 °C
- CCCc1nc2c[n+]([O-])c3ccc(C)cc3c2s1: 143 to 145 °C
- CCCCc1nc2c[n+]([O-])c3ccccc3c2s1 [Example 17, 2-Butylthiazolo[4,5-c]quinoline-5N-oxide]: 133 to 135 °C
- CCCc1nc2c(N)nc3cc(C)ccc3c2o1: 188 to 189 °C
- Cc1nc2c(N)nc3ccccc3c2o1 [Example 38, 2-Methyloxazolo[4,5-c]quinolin-4-amine]: 195 to 197 °C
- CCCc1nc2c[n+]([O-])c3cccnc3c2s1: 139 to 142 °C
- CS(=O)(=O)c1nc2c[n+]([O-])c3ccccc3c2s1: 245 to 247 °C
- Nc1nc2ccccc2c2sc(N3CCOCC3)nc12: 225 to 227 °C
- Nc1nc2ccccc2c2sc(CO)nc12: 247 to 249 °C
- CCCc1nc2c(N)nccc2s1 (as salt: trifluoroacetate): 160 to 162 °C
- Cl.Nc1nc2ccccc2c2scnc12.O (hydrate or solvate): 284 to 285 °C
- CCCc1nc2c(N)nc3cc(OC)ccc3c2s1: 152 to 154 °C
- CCc1nc2c(N)nc3ccccc3c2s1.Cl: 268 to 270 °C
- CCCc1nc2c(N)nc3cc(C)ccc3c2s1: 186 to 187 °C
- CCCc1nc2c[n+]([O-])ccc2s1: 137 to 139 °C
- [O-][n+]1cc2nc(CCc3ccccc3)sc2c2ccccc21: 165 to 169 °C
- CCCc1nc2c(N)nc3cccnc3c2s1: 135 to 136 °C

----------
recorded_endpoint: melting point

• CCOCc1nc2c(N)nc3ccccc3c2s1 = 149 to 151 °C
• CCc1nc2c[n+]([O-])c3ccccc3c2s1 [Example 7, 2-Ethylthiazolo[4,5-c]quinoline-5N-oxide] = 128 °C
• CCCCc1nc2c(N)nc3cccnc3c2s1 = 136 to 138 °C
• [O-][n+]1cc2nc(Cc3ccccc3)sc2c2ccccc21 = 185 to 186 °C
• Nc1nc2ccccc2c2sc(/C=C/c3ccccc3)nc12 = 239 to 241 °C
• CCCCc1nc2c[n+]([O-])c3ccccc3c2o1 [Example 40, 2-Butyloxazolo[4,5-c]quinoline-5N-oxide] = 120 to 121 °C
• CCCc1nc2c(N)nc3cc(F)ccc3c2s1 = 192.5 to 193.5 °C
• CCCCc1nc2c[n+]([O-])c3cccnc3c2s1 = 65 to 69 °C
• COCc1nc2c(N)nc3ccccc3c2s1 = 183 to 185 °C
• CCCc1nc2c[n+]([O-])c3ccccc3c2s1 = 123 °C
• [O-][n+]1cc2nc(/C=C/c3ccccc3)sc2c2ccccc21 = 268 to 270 °C
• [O-][n+]1cc2nc(N3CCOCC3)sc2c2ccccc21 = 241 to 242 °C
• CCCc1nc2c(N)nc3cc(F)ccc3c2o1 = 184 to 187 °C
• CCCCc1nc2c(N)nc3cc(C)ccc3c2o1 = 187 to 188 °C
• Nc1nc2ccccc2c2sc(N3CCCC3)nc12 = 259 to 261 °C
• CC(C)(Cc1nc2c(N)nc3ccccc3c2s1)OC(N)=O = 222 to 223 °C
• CCCc1nc2c(N)nc3ccc(Br)cc3c2s1 = 177 to 180 °C
• CCCCCc1nc2c(N)nc3ccccc3c2s1 [Example 16, 2-Pentylthiazolo[4,5-c]quinolin-4-amine] = 119 to 121 °C
• Nc1nc2ccccc2c2sc(CCc3ccccc3)nc12 = 158 to 159 °C

----------
System: tumor necrosis factor (α)
experiment_description: Cytokine induction in human cells: tumor necrosis factor (α) secreted by PBMCs (ELISA)
Type: cell-based
condition_set: Dose Concentration 10 μM, 18 to 24 hours
recorded_endpoint: Tumor Necrosis Factor Induction

• CCCc1nc2c(N)nc3ccc(N)cc3c2s1 = +
• CCCCc1nc2c(N)nc3ccccc3c2s1 [Example 18, 2-Butylthiazolo[4,5-c]quinolin-4-amine] = +
• CCCc1nc2c(N)nc3cccnc3c2s1 = +
• Nc1nc2ccccc2c2sc(N3CCOCC3)nc12 = −

----------
Test system: interferon (α)
experiment_description: Cytokine induction in human cells: interferon (α) secreted by PBMCs (ELISA or bioassay)
Format: cell-based
condition_set: Dose Concentration 0.37 μM, 18 to 24 hours
recorded_endpoint: Interferon (α) Induction

• CCCc1nc2c(N)nc3cc(OC)ccc3c2s1 [Example 64] = +
• Nc1nc2ccccc2c2sc(N3CCOCC3)nc12 [Example 53] = −
• Nc1nc2ccccc2c2sc(CCc3ccccc3)nc12 [Example 24] = −
• CCCc1nc2c(N)nc3cccnc3c2s1 [Example 60] = −
• CCCCc1nc2c(N)nc3ccccc3c2s1 [Example 18, 2-Butylthiazolo[4,5-c]quinolin-4-amine] = −

----------
Tested on: interferon (α)
experiment_description: Interferon (α) induction in human cells (in vitro human blood cell system, interferon by bioassay)
Format: cell-based
condition_set: Dose Concentration 0.50 μg/mL; human PBM's, 48 hours
recorded_endpoint: Interferon (α) Induction in Human Cells

• Nc1nc2ccccc2c2sc(CO)nc12 [Example 37] = −
• CCOCc1nc2c(N)nc3ccccc3c2s1 [Example 28] = +
• CCCCc1nc2c(N)nc3cc(C)ccc3c2o1 [Example 46] = +
• CCCc1nc2c(N)nc3cc(F)ccc3c2s1 [Example 49] = +
• Cc1nc2c(N)nc3ccccc3c2s1 [Example 2, 2-Methylthiazolo[4,5-c]quinolin-4-amine] = +
